- method.description: Antioxidant activity assessed as DPPH scavenging activity after 4 hrs […]
- Assay type: functional
quantity.kind: IC50 (µM)
Answer with a number only, understood to be in µM.

Previously resolved entries follow.
- test.smiles: "Oc1cc(Br)c(Cc2cc(Br)ccc2O)cc1O"
  unit.of.measure: "µM"
  IC50: 88.5
- test.smiles: "O=C(c1ccc(O)c(O)c1)c1c(Br)c(O)c(O)c(O)c1Br"
  unit.of.measure: "µM"
  IC50: 96.2
- test.smiles: "O=C(c1ccc(Cl)cc1)c1ccc(O)c(O)c1"
  unit.of.measure: "µM"
  IC50: 103
- test.smiles: "O=C(c1cc(Br)ccc1O)c1cc(O)c(O)cc1Br"
  unit.of.measure: "µM"
  IC50: 79.6
- test.smiles: "O=C(c1ccccc1)c1cc(O)c(O)c(Br)c1Br"
  unit.of.measure: "µM"
  IC50: 87.7
- test.smiles: "Oc1cc(Br)c(Cc2ccc(O)c(Br)c2)cc1O"
  unit.of.measure: "µM"
  IC50: 87.4
- test.smiles: "O=C(c1ccccc1)c1cc(O)c(O)cc1Br"
  unit.of.measure: "µM"
  IC50: 84
- test.smiles: "Oc1ccc(Cc2c(Cl)c(O)c(O)c(O)c2Cl)cc1O"
  unit.of.measure: "µM"
  IC50: 102
- test.smiles: "O=C(c1ccc(O)c(O)c1)c1ccccc1Cl"
  unit.of.measure: "µM"
  IC50: 113
- test.smiles: "O=C(c1ccc(O)c(O)c1)c1c(Cl)c(O)c(O)c(O)c1Cl"
  unit.of.measure: "µM"
  IC50: 87.3

Problem: For the compound Oc1ccc(Cc2c(Br)c(O)c(O)c(O)c2Br)cc1O , what IC50 is on record?
Solution: 84.2

Problem: Another compound to check: Oc1cc(Cc2ccccc2)c(Br)c(Br)c1O
Solution: 88

Problem: Let us now turn to O=C(c1cccc(Cl)c1)c1ccc(O)c(O)c1
Solution: 110
